molecular target: PAD2 (Homo sapiens); experiment: PAD2 inactivation kinetics; assay type: biochemical; conditions: as compared to BB-F-amidine (4a)
Sequence (Q9Y2J8 whole entry): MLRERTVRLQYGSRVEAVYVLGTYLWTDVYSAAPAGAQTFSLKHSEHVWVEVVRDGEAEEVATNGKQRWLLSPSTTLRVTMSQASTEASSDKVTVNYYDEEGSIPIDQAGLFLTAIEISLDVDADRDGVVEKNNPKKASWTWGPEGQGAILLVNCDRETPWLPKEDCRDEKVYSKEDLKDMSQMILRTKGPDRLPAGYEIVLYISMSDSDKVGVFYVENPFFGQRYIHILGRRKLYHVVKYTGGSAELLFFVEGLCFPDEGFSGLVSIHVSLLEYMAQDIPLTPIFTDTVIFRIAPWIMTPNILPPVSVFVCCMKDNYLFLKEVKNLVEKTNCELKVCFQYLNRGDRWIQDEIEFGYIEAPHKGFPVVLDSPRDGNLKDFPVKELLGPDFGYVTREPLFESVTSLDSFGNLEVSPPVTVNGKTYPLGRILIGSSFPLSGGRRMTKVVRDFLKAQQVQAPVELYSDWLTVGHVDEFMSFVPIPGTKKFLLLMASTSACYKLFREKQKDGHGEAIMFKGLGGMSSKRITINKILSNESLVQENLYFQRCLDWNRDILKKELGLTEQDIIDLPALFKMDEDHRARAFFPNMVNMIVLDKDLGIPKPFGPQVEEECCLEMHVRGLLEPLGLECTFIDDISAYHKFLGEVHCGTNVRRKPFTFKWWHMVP
Quantity kind: fold increase in PAD2 inhibition

IN: // map N=C(CF)NCCC[C@H](NC(=O)c1cccc2c1C(=O)NC2)c1nc2ccccc2[nH]1 [14a] to recorded fold increase in PAD2 inhibition (system: PAD2 (Homo sapiens))
OUT: ~ 9 fold

IN: // map CCN1Cc2cccc(C(=O)N[C@@H](CCCNC(=N)CF)c3nc4c(OC)cccc4n3C)c2C1=O [41a] to recorded fold increase in PAD2 inhibition (system: PAD2 (Homo sapiens))
OUT: > 300 fold

IN: // map CCn1c([C@H](CCCNC(=N)CF)NC(=O)c2cccc3c2C(=O)NC3)nc2ccccc21 [16a] to recorded fold increase in PAD2 inhibition (system: PAD2 (Homo sapiens))
OUT: ~ 51 fold

IN: // map CCn1c([C@H](CCCNC(=N)CF)NC(=O)c2ccccc2C(=O)O)nc2ccccc21 [11a] to recorded fold increase in PAD2 inhibition (system: PAD2 (Homo sapiens))
OUT: 26 fold
